SUBJECT_OF_TEST: T1, human serum albumin (human, UniProt P02768 25-609)
T1 construct: immobilized on chips or coated on plates elsewhere; also called HSA; HuSA
ASSAY_METHOD_TEXT: direct binding ELISA, albumin coated
pEC50: −log10 of the molar value.

BINDER: PCSK9-PKE2 tandem 4472_E06 (designed binder, The real molecule is ONE polypeptide: PCSK9 domain, undisclosed linker I (a code letter), PKE2 domain. It is given here as two chains because the linker letters are unknown., also called 4427_E06; not shown: The inter-domain linker) PCSK9 domain: MGVSDVPRDLEVVAATPTSLLISWDAPAEGYGYYRITYGETGGNSPVQEFTVPVSKGTATISGLKPGVDYTITVYAVEFDFPGAGYYHRPISINYRTE PKE2 domain: GVSDVPRDLEVVAATPTSLLISWDAPAVTVRYYRITYGREVQKYSDLGPLYIYQEFTVPGSKSTATISGLKPGVDYTITVYAVTGSGESPASSKPISINYRTEHHHHHH
pEC50: 7.17
//
BINDER: PKE2 Adnectin 2629_E06 (designed binder, 10Fn3 domain with modified CD loop; the entry includes the His6 tail; also called ADX_2629_E06) MGVSDVPRDLEVVAATPTSLLISWDAPAVTVRYYRITYGREVQKYSDLGPLYIYQEFTVPGSKSTATISGLKPGVDYTITVYAVTGSGESPASSKPISINYRTEIDKPSQHHHHHH
pEC50: 7.84
//
BINDER: PCSK9-PKE2 tandem 4472_C08 (designed binder, The real molecule is ONE polypeptide: PCSK9 domain, undisclosed linker 'E' (a code letter, not the residue), PKE2 domain. It is given here as two chains because the linker letters are unknown., not shown: The inter-domain linker) PCSK9 domain: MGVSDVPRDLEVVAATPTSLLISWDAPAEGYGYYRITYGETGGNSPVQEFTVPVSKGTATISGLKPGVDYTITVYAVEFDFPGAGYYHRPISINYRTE PKE2 domain: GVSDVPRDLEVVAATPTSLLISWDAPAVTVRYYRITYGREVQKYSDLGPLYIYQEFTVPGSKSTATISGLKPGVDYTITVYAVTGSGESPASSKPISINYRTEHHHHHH
pEC50: 7.39
